All values here come from ChEMBL document CHEMBL2163249.

- assayed target: Acetylcholinesterase (Electrophorus electricus)
- Sequence (O42275 whole entry): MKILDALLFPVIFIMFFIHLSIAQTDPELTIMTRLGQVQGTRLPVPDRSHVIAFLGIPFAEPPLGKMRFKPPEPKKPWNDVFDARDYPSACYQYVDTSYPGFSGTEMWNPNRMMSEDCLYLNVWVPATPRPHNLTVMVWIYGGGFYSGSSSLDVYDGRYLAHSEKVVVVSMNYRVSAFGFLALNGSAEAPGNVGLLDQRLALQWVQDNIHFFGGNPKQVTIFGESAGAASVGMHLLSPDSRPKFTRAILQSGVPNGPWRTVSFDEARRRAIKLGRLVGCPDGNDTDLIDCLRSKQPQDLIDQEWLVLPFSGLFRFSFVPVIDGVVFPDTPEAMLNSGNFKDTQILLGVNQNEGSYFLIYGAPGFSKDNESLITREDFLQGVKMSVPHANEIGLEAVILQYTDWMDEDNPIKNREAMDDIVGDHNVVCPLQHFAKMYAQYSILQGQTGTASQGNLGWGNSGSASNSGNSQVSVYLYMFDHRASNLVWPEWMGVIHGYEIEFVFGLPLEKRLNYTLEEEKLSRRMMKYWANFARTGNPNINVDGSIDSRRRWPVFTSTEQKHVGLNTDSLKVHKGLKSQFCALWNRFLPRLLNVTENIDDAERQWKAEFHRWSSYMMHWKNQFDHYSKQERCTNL
- assay name: Uncompetitive inhibition of electric eel AChE using acetyl thiocholine iodide as substrate by Lineweaver-Burk double-reciprocal analysis
measured attribute: Ki (nM)
Number in nM, nothing else.

What measured Ki goes with COc1ccc2c(c[n+](C)c3c4cc5c(cc4ccc23)OCO5)c1OC [CHELERYTHRINE CHLORIDE] ?
920

###

Hi there, I'd appreciate the recorded inhibition for every entry that follows.
- assayed target: Cholinesterase (Equus caballus) (UniProt P81908)
- Sequence (P81908 whole entry): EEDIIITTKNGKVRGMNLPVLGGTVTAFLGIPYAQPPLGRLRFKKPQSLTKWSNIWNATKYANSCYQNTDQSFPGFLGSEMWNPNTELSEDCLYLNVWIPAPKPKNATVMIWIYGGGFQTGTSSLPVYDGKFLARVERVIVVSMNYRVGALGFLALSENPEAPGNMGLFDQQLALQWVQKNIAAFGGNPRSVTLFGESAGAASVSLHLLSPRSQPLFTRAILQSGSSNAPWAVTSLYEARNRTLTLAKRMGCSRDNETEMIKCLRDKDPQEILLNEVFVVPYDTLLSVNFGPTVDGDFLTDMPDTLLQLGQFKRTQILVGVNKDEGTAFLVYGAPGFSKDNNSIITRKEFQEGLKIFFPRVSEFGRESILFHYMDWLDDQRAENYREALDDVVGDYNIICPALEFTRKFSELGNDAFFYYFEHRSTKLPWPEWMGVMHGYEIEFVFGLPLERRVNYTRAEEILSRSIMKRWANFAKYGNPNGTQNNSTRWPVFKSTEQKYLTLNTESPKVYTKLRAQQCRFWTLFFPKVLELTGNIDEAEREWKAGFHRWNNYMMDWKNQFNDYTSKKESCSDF
- condition description: at 2 mg/mL
- Description: Inhibition of horse BChE at 2 mg/ml by Ellman's method
Number in %, nothing else.

# value lookup — system Cholinesterase (Equus caballus) (UniProt P81908), readout inhibition, item COc1c2c3c4c(c(OC)c(=O)c5c(O)cc(OC)c(c6c(OC)cc(O)c(c1=O)c63)c54)[C@@H](C(C)=O)[C@@](C)(O)C2 (relative stereo)
1.53

# value lookup — system Cholinesterase (Equus caballus) (UniProt P81908), readout inhibition, item COc1cc2c(cc1OC)[C@@]13CC[N+]4([O-])CC5=CCO[C@H]6CC(=O)N2[C@H]1[C@H]6[C@H]5C[C@@H]34 (stereo partly specified)
-6.05

# value lookup — system Cholinesterase (Equus caballus) (UniProt P81908), readout inhibition, item `CCCCCCCCCCCC1=C(O)C(=O)C=C(O)C1=O`
1.24

# value lookup — system Cholinesterase (Equus caballus) (UniProt P81908), readout inhibition, item `CC(C)=CC[C@@H](O)C1=CC(=O)c2c(O)ccc(O)c2C1=O`
3.58

# value lookup — system Cholinesterase (Equus caballus) (UniProt P81908), readout inhibition, item `COc1cc(-c2oc3cc(O)cc(O)c3c(=O)c2O[C@@H]2O[C@H](CO)[C@@H](O)[C@H](O)[C@H]2O)ccc1O`
1.08

# value lookup — system Cholinesterase (Equus caballus) (UniProt P81908), readout inhibition, item `C[C@H]1[C@H](C)CC[C@]2(C(=O)O)CC[C@]3(C)C(=CC[C@@H]4[C@@]5(C)CC[C@H](O)C(C)(C)[C@@H]5CC[C@]43C)[C@H]12`
5.32

# value lookup — system Cholinesterase (Equus caballus) (UniProt P81908), readout inhibition, item `CO[C@H]1[C@@H](O)[C@@H](C)O[C@H](O[C@H]2[C@H](Oc3cccc4c(O)c5c(=O)oc6ccc(C)c7c(=O)oc(c34)c5c67)O[C@H](C)[C@H](O)[C@@H]2O)[C@@H]1O`
7.94

# value lookup — system Cholinesterase (Equus caballus) (UniProt P81908), readout inhibition, item `CC[C@H](C)/C=C(C)/C=C/C1=CC2=C(Cl)C(=O)[C@](C)(OC(C)=O)C(=O)C2=CO1`
6.21

# value lookup — system Cholinesterase (Equus caballus) (UniProt P81908), readout inhibition, item `O=C1/C(=C/c2ccc(O)c(O)c2)Oc2c1ccc(O[C@@H]1O[C@H](CO)[C@@H](O)[C@H](O)[C@H]1O)c2O`
3.06

# value lookup — system Cholinesterase (Equus caballus) (UniProt P81908), readout inhibition, item `CCCCCCCCCCCCCC(=O)O[C@@H]1[C@@H](C)[C@@]2(O)[C@@H](C=C(CO)C[C@@]3(O)C(=O)C(C)=C[C@@H]23)[C@H]2C(C)(C)[C@]12OC(C)=O`
-0.91

# value lookup — system Cholinesterase (Equus caballus) (UniProt P81908), readout inhibition, item `C[C@@H]1O[C@@H](OC[C@H]2O[C@@H](Oc3c(-c4ccc(O)c(O)c4)oc4cc(O)cc(O)c4c3=O)[C@H](O)[C@@H](O)[C@@H]2O)[C@H](O)[C@H](O)[C@H]1O`
4.32

# value lookup — system Cholinesterase (Equus caballus) (UniProt P81908), readout inhibition, item `CC(C)=CC[C@@H](OC(=O)C=C(C)C)C1=CC(=O)c2c(O)ccc(O)c2C1=O`
6.03

# value lookup — system Cholinesterase (Equus caballus) (UniProt P81908), readout inhibition, item `N[C@@H](Cn1ccc(=O)c(O)c1)C(=O)O`
11.2

# value lookup — system Cholinesterase (Equus caballus) (UniProt P81908), readout inhibition, item `CCN1C[C@]2(OC(=O)c3ccccc3NC(C)=O)CC[C@H](OC)[C@@]34[C@@H]2C[C@@H]([C@@H]13)[C@@]1(O)C[C@H](OC)[C@H]2C[C@@H]4[C@]1(O)[C@H]2OC`
-7.41

# value lookup — system Cholinesterase (Equus caballus) (UniProt P81908), readout inhibition, item `C=C[C@@]1(C)CC(=O)[C@]2(O)[C@@]3(C)[C@@H](O)CCC(C)(C)[C@@H]3[C@H](O)[C@H](OC(C)=O)[C@@]2(C)O1`
1.35

# value lookup — system Cholinesterase (Equus caballus) (UniProt P81908), readout inhibition, item `CC1=NCCc2c1[nH]c1cc(O)ccc21`
34.5

# value lookup — system Cholinesterase (Equus caballus) (UniProt P81908), readout inhibition, item `C=C1CC[C@H]2C(=C)CC[C@H]3C(=C)C(=O)O[C@@H]3[C@@H]12`
10.7

# value lookup — system Cholinesterase (Equus caballus) (UniProt P81908), readout inhibition, item `O=c1c(-c2ccc(O)cc2)coc2cc(O[C@@H]3O[C@H](CO)[C@@H](O)[C@H](O)[C@H]3O)ccc12`
-0.76

# value lookup — system Cholinesterase (Equus caballus) (UniProt P81908), readout inhibition, item `CCCCCCCCCCCCCC[C@@H](O)[C@@H](O)[C@@H](N)CO`
7.46

# value lookup — system Cholinesterase (Equus caballus) (UniProt P81908), readout inhibition, item `CCn1cc(C(=O)O)c(=O)c2ccc(C)nc21`
-8.73

# value lookup — system Cholinesterase (Equus caballus) (UniProt P81908), readout inhibition, item `CC1=C(/C=C/C(C)=C/C=C/C(C)=C\C(=O)O)C(C)(C)CCC1`
0.91

# value lookup — system Cholinesterase (Equus caballus) (UniProt P81908), readout inhibition, item `CC1(C)CCC[C@](C)([C@H]2CC[C@]3(C)[C@@H]2[C@H](O)C[C@@H]2[C@@]4(C)CC[C@H](O)C(C)(C)[C@@H]4CC[C@]23C)O1`
12.1

# value lookup — system Cholinesterase (Equus caballus) (UniProt P81908), readout inhibition, item `O=C(O[C@@H]1Cc2c(O)cc(O)cc2O[C@@H]1c1cc(O)c(O)c(O)c1)c1cc(O)c(O)c(O)c1`
-4.27

# value lookup — system Cholinesterase (Equus caballus) (UniProt P81908), readout inhibition, item CC1=CC(=O)CC(C)(C)C1(O)/C=C/C(C)=C\C(=O)O (racemic)
-4.4

# value lookup — system Cholinesterase (Equus caballus) (UniProt P81908), readout inhibition, item CCC12C=CCN3CC[C@@]4(c5ccc(OC)cc5N(C)[C@H]4[C@@](O)(C(=O)OC)[C@@H]1OC(C)=O)[C@@H]32 (stereo partly specified)
-7.45

# value lookup — system Cholinesterase (Equus caballus) (UniProt P81908), readout inhibition, item `Cc1cc2cc3c(C)cc(=O)oc3c(C)c2o1`
2.42

# value lookup — system Cholinesterase (Equus caballus) (UniProt P81908), readout inhibition, item `C[C@@H]1[C@H](O)[C@@H](C)/C=C/C=C/C=C/C=C/C=C/C=C/C=C/[C@H](O[C@@H]2O[C@H](C)[C@@H](O)[C@H](N)[C@@H]2O)C[C@@H]2O[C@](O)(C[C@@H](O)C[C@@H](O)[C@H](O)CC[C@@H](O)C[C@@H](O)CC(=O)O[C@H]1C)C[C@H](O)[C@H]2C(=O)O`
11.9

# value lookup — system Cholinesterase (Equus caballus) (UniProt P81908), readout inhibition, item `N[C@H]1CONC1=O`
-5.13

# value lookup — system Cholinesterase (Equus caballus) (UniProt P81908), readout inhibition, item `O=C1C[C@@H](c2ccc(O)c(O)c2)Oc2c1ccc(O[C@@H]1O[C@H](CO)[C@@H](O)[C@H](O)[C@H]1O)c2O`
3.1

# value lookup — system Cholinesterase (Equus caballus) (UniProt P81908), readout inhibition, item `COc1ccc(C[C@H]2NC[C@H](O)[C@H]2OC(C)=O)cc1`
-3.31

# value lookup — system Cholinesterase (Equus caballus) (UniProt P81908), readout inhibition, item `CCN1C[C@]2(C)CC[C@H](O)[C@]34C1[C@@H](C[C@H]23)[C@@]1(O)C[C@H](OC)[C@H]2C[C@@H]4[C@@H]1[C@H]2O`
-5.97
